# Species: Rattus norvegicus
# ASSAY_NOTES: Inhibition of conditioned avoidance response (CAR) in fasted male Sprague-Dawley rats.
# Format: functional
Note to self: ED50 under 50 mg/kg means condition met, ties and anything higher get condition not met.

Prompt: Quick check: ED50 of N#Cc1cccnc1N1CCN(CCCCN2C(=O)CC3(CCCC3)CC2=O)CC1 under 50 mg/kg?
Response: condition met

Prompt: Quick check: ED50 of CC1(C)CC(=O)N(CCCCN2CCN(c3ncccn3)CC2)C(=O)C1 [GEPIRONE] under 50 mg/kg?
Response: condition not met

Prompt: Quick check: ED50 of COc1cccnc1N1CCN(CCCCN2C(=O)CC3(CCCC3)CC2=O)CC1 under 50 mg/kg?
Response: condition not met

Prompt: Quick check: ED50 of O=C(CCCN1CCC(O)(c2ccc(Cl)cc2)CC1)c1ccc(F)cc1 [HALOPERIDOL] under 50 mg/kg?
Response: condition met

Prompt: Quick check: ED50 of O=C1CC2(CCCC2)CC(=O)N1CCCN1CCN(c2ncccn2)CC1 under 50 mg/kg?
Response: condition not met

* * *

# Organism: Rattus norvegicus
# ASSAY_NOTES: Inhibition of conditioned avoidance response (CAR) in fasted male Sprague-Dawley rats.
# Format: functional
Note to self: ED50 under 50 mg/kg means TRUE, ties and anything higher get FALSE.

Prompt: Quick check: ED50 of COc1ccccc1N1CCN(CCN2C(=O)CC(C)(C)CC2=O)CC1 under 50 mg/kg?
Response: FALSE

Prompt: Quick check: ED50 of O=C1CC2(CCCC2)CC(=O)N1CCCCN1CCN(c2ccccc2)CC1 under 50 mg/kg?
Response: TRUE

Prompt: Quick check: ED50 of O=C1CC2(CCCC2)CC(=O)N1CCCCN1CCN(c2ccccc2F)CC1 under 50 mg/kg?
Response: TRUE

Prompt: Quick check: ED50 of O=C1CC2(CCCCC2)C(=O)N1CCCCN1CCN(c2ncccn2)CC1 under 50 mg/kg?
Response: FALSE

* * *

Answer each item with its documented log10 IC50.
# SYSTEM_UNDER_TEST: Adrenergic receptor alpha-1 (Rattus norvegicus, UniProt P15823+P23944+P43140)
# ASSAY_NOTES: Inhibition of [3H]WB-4101 binding to alpha-1-adrenergic receptor from rat cerebral cortex membranes
# Type: cell membranes, Membrane
# values: log10(IC50), units nM

Prompt: Which log10 IC50 value is on record for COc1ccccc1N1CCN(CCN2C(=O)CCC(C)(C)C2=O)CC1 ?
Response: 2.68

Prompt: Which log10 IC50 value is on record for N#Cc1cccnc1N1CCN(CCCCN2C(=O)CC3(CCCC3)CC2=O)CC1 ?
Response: 2.56

Prompt: Which log10 IC50 value is on record for O=C1CC2(CCCC2)CC(=O)N1CCCCN1CCN(c2ccccc2[N+](=O)[O-])CC1 ?
Response: 2.04

Prompt: Which log10 IC50 value is on record for COc1ccccc1N1CCN(CCN2C(=O)CC3(CCCCC3)C2=O)CC1 ?
Response: 2.38

Prompt: Which log10 IC50 value is on record for O=C1CC2(CCCC2)CC(=O)N1CCCCN1CCN(c2ccccn2)CC1 ?
Response: 2.44

Prompt: Which log10 IC50 value is on record for O=C1CC2(CCCC2)CC(=O)N1CCCN1CCN(c2cccc(Cl)c2)CC1 ?
Response: 2.18

Prompt: Which log10 IC50 value is on record for COc1ccccc1N1CCN(CCN2C(=O)CC(C)(C)CC2=O)CC1 ?
Response: 2.95

Prompt: Which log10 IC50 value is on record for COc1cccnc1N1CCN(CCCCN2C(=O)CC3(CCCC3)CC2=O)CC1 ?
Response: 1.81

Prompt: Which log10 IC50 value is on record for COc1ccccc1N1CCN(CCCN2C(=O)CC3(CCCC3)CC2=O)CC1 ?
Response: 1.28

Prompt: Which log10 IC50 value is on record for COc1ccccc1N1CCN(CCCCN2C(=O)CC3(CCCC3)CC2=O)CC1 ?
Response: 1.11

Prompt: Which log10 IC50 value is on record for Cc1ccccc1N1CCN(CCCCN2C(=O)CC3(CCCC3)CC2=O)CC1 ?
Response: 1.64

Prompt: Which log10 IC50 value is on record for O=C1CCC2(CCCC2)CC(=O)N1CCCCN1CCN(c2ncccn2)CC1 ?
Response: 2.91

Prompt: Which log10 IC50 value is on record for O=C1CC2(CCCC2)CC(=O)N1CCCCN1CCN(c2cccc(Cl)c2)CC1 ?
Response: 1.36

Prompt: Which log10 IC50 value is on record for CC12CC1(C)C(=O)N(CCCCN1CCN(c3ncccn3)CC1)C2=O (stereo not drawn) ?
Response: 2.83

* * *

# Organism: Rattus norvegicus
# ASSAY_NOTES: Inhibition of conditioned avoidance response (CAR) in fasted male Sprague-Dawley rats.
# Format: functional
The following ranges of ED50 define the classes used here: range 1 = under 30 mg/kg, range 2 = from 30 mg/kg up to 60 mg/kg, range 3 = 60 mg/kg and over

Prompt: Note: place this compound into its band. Item: O=C1CC2(CCCC2)CC(=O)N1CCCCN1CCN(c2ccccn2)CC1
Response: range 2

Prompt: Note: place this compound into its band. Item: N#Cc1cccnc1N1CCN(CCCN2C(=O)CC3(CCCC3)CC2=O)CC1
Response: range 3

Prompt: Note: place this compound into its band. Item: COc1ccccc1N1CCN(CCN2C(=O)CC3(CCCCCCC3)C2=O)CC1
Response: range 3

Prompt: Note: place this compound into its band. Item: O=C1C2C3C=CC(CC3)C2C(=O)N1CCCCN1CCN(c2ncccn2)CC1 (configuration not stated)
Response: range 3

Prompt: Note: place this compound into its band. Item: COc1ccccc1N1CCN(CCCN2C(=O)CC3(CCCC3)CC2=O)CC1
Response: range 1

Prompt: Note: place this compound into its band. Item: COc1ccccc1N1CCN(CCN2C(=O)C(C)CC(C)C2=O)CC1 (configuration not stated)
Response: range 3

Prompt: Note: place this compound into its band. Item: CSc1ccc2c(c1)N(CCC1CCCCN1C)c1ccccc1S2 (configuration not stated)
Response: range 3

Prompt: Note: place this compound into its band. Item: COc1ccccc1N1CCN(CCN2C(=O)CCC(C)(C)C2=O)CC1
Response: range 2

Prompt: Note: place this compound into its band. Item: Cc1ccnc(N2CCN(CCCCN3C(=O)CC4(CCCC4)CC3=O)CC2)n1
Response: range 2

Prompt: Note: place this compound into its band. Item: CN1CCN(C2=Nc3cc(Cl)ccc3Nc3ccccc32)CC1
Response: range 1

Prompt: Note: place this compound into its band. Item: O=C1CC2(CCCC2)CC(=O)N1CCN1CCN(c2cccc(Cl)c2)CC1
Response: range 3

Prompt: Note: place this compound into its band. Item: COc1ccccc1N1CCN(CCCCN2C(=O)CC3(CCCC3)CC2=O)CC1
Response: range 1

Prompt: Note: place this compound into its band. Item: O=C1CC2(CCCC2)CC(=O)N1CCCCN1CCN(c2ccccc2Cl)CC1
Response: range 3

Prompt: Note: place this compound into its band. Item: CC12CC1(C)C(=O)N(CCCCN1CCN(c3ncccn3)CC1)C2=O (configuration not stated)
Response: range 3

Prompt: Note: place this compound into its band. Item: O=C1CC2(CCCC2)CC(=O)N1CCCCCN1CCN(c2ncccn2)CC1
Response: range 3

Prompt: Note: place this compound into its band. Item: O=C1CC2(CCCC2)CC(=O)N1CCCCN1CCN(c2cccc(Cl)c2)CC1
Response: range 1

Prompt: Note: place this compound into its band. Item: O=C1CC2(CCCC2)CC(=O)N1CCCN1CCN(c2cccc(Cl)c2)CC1
Response: range 1

Prompt: Note: place this compound into its band. Item: N#Cc1cccnc1N1CCN(CCN2C(=O)CC3(CCCC3)CC2=O)CC1
Response: range 3

Prompt: Note: place this compound into its band. Item: O=C1CC2(CCCC2)CC(=O)N1CCN1CCN(c2ccccc2)CC1
Response: range 3

Prompt: Note: place this compound into its band. Item: COc1ccccc1N1CCN(CCN2C(=O)CC3(CCCC3)CC2=O)CC1
Response: range 2

* * *

# SYSTEM_UNDER_TEST: Adrenergic receptor alpha-1 (Rattus norvegicus, UniProt P15823+P23944+P43140)
# ASSAY_NOTES: Inhibition of [3H]WB-4101 binding to alpha-1-adrenergic receptor from rat cerebral cortex membranes
# Assay type: cell membranes, Membrane
PROPERTY: IC50

Prompt: Which IC50 value is on record for O=C1CC2(CCCCC2)C(=O)N1CCCCN1CCN(c2ncccn2)CC1 ?
Response: > 1000 nM

Prompt: Which IC50 value is on record for O=C1CC2(CCCCCC2)C(=O)N1CCCCN1CCN(c2ncccn2)CC1 ?
Response: > 1000 nM

Prompt: Which IC50 value is on record for Cc1ccnc(N2CCN(CCCCN3C(=O)CC4(CCCC4)CC3=O)CC2)n1 ?
Response: > 1000 nM

Prompt: Which IC50 value is on record for COc1ccccc1N1CCN(CCN2C(=O)CC3(CCCCCCC3)C2=O)CC1 ?
Response: > 1000 nM
